# Format: in vivo, human (Chinese patients with type 2 diabetes)
# condition-notes: human, plasma, oral, 100 mg, t½, single dose 100 mg; mean (SD)
observation-type: half-life (h)
Just the number please, in h, no unit attached.

# input Identify half-life associated with the molecule CC(C)(CC(=O)N1CCCC1)NCC(=O)N1C[C@@H](F)C[C@H]1C#N
# output 9.6

----------
# Format: in vivo, human (Chinese patients with type 2 diabetes)
# condition-notes: human, plasma, oral, 200 mg, t½, single dose 200 mg; mean (SD)
observation-type: half-life
Phrase the answer as number then unit, nothing more needed.

# input Identify half-life associated with the molecule CC(C)(CC(=O)N1CCCC1)NCC(=O)N1C[C@@H](F)C[C@H]1C#N
# output 12.3 h

----------
# Format: in vivo, human (Chinese patients with type 2 diabetes)
# condition-notes: human, plasma, oral, 50 mg, λz, single dose 50 mg; mean (SD)
observation-type: k el (s⁻¹)
Just the number please, in s⁻¹, no unit attached.

# input Identify k el associated with the compound CC(C)(CC(=O)N1CCCC1)NCC(=O)N1C[C@@H](F)C[C@H]1C#N [DBPR108]
# output 5e-05

----------
# Type: in vivo, human (Chinese patients with type 2 diabetes)
# condition-notes: human, plasma, oral, 50 mg, AUClast, single dose 50 mg; mean (SD)
observation-type: AUC(0-t)
Phrase the answer as number then unit, nothing more needed.

# input Identify AUC(0-t) associated with the molecule CC(C)(CC(=O)N1CCCC1)NCC(=O)N1C[C@@H](F)C[C@H]1C#N [DBPR108]
# output 780 ng·h/mL

----------
# Assay type: in vivo, human (Chinese patients with type 2 diabetes)
# condition-notes: human, plasma, oral, 100 mg, AUCinf, single dose 100 mg; mean (SD)
observation-type: AUC(0-inf) (ng·h/mL)
Just the number please, in ng·h/mL, no unit attached.

# input Identify AUC(0-inf) associated with the molecule CC(C)(CC(=O)N1CCCC1)NCC(=O)N1C[C@@H](F)C[C@H]1C#N
# output 1530

----------
# Assay type: in vivo, human (Chinese patients with type 2 diabetes)
# condition-notes: human, plasma, oral, 100 mg, λz, single dose 100 mg; mean (SD)
observation-type: k el (s⁻¹)
Just the number please, in s⁻¹, no unit attached.

# input Identify k el associated with the compound CC(C)(CC(=O)N1CCCC1)NCC(=O)N1C[C@@H](F)C[C@H]1C#N
# output 3.61e-05

----------
# Format: in vivo, human (Chinese patients with type 2 diabetes)
# condition-notes: human, plasma, oral, 50 mg, Tmax, single dose 50 mg; median (range)
observation-type: Tmax (h)
Just the number please, in h, no unit attached.

# input Identify Tmax associated with the molecule CC(C)(CC(=O)N1CCCC1)NCC(=O)N1C[C@@H](F)C[C@H]1C#N
# output 1.5

----------
# Type: in vivo, human (Chinese patients with type 2 diabetes)
# condition-notes: human, plasma, oral, 100 mg, AUCtau, single dose 100 mg; mean (SD)
observation-type: AUC (ng·h/mL)
Just the number please, in ng·h/mL, no unit attached.

# input Identify AUC associated with the compound CC(C)(CC(=O)N1CCCC1)NCC(=O)N1C[C@@H](F)C[C@H]1C#N
# output 1450

----------
# Format: in vivo, human (Chinese patients with type 2 diabetes)
# condition-notes: human, plasma, oral, 200 mg, Vz/F, single dose 200 mg; mean (SD)
observation-type: Vd/F (L)
Just the number please, in L, no unit attached.

# input Identify Vd/F associated with the compound CC(C)(CC(=O)N1CCCC1)NCC(=O)N1C[C@@H](F)C[C@H]1C#N
# output 1070

----------
# Type: in vivo, human (Chinese patients with type 2 diabetes)
# condition-notes: human, plasma, oral, 100 mg, t½,ss, multiple doses 100 mg once daily; mean (SD)
observation-type: half-life (h)
Just the number please, in h, no unit attached.

# input Identify half-life associated with the compound CC(C)(CC(=O)N1CCCC1)NCC(=O)N1C[C@@H](F)C[C@H]1C#N [DBPR108]
# output 7.4

----------
# Type: in vivo, human (Chinese patients with type 2 diabetes)
# condition-notes: human, plasma, oral, 200 mg, AUClast, single dose 200 mg; mean (SD)
observation-type: AUC(0-t) (ng·h/mL)
Just the number please, in ng·h/mL, no unit attached.

# input Identify AUC(0-t) associated with the molecule CC(C)(CC(=O)N1CCCC1)NCC(=O)N1C[C@@H](F)C[C@H]1C#N
# output 3280

----------
# Format: in vivo, human (Chinese patients with type 2 diabetes)
# condition-notes: human, plasma, oral, 50 mg, Vz/F, multiple doses 50 mg once daily; mean (SD)
observation-type: Vd/F (L)
Just the number please, in L, no unit attached.

# input Identify Vd/F associated with the compound CC(C)(CC(=O)N1CCCC1)NCC(=O)N1C[C@@H](F)C[C@H]1C#N
# output 806

----------
# Assay type: in vivo, human (Chinese patients with type 2 diabetes)
# condition-notes: human, plasma, oral, 200 mg, t½,ss, multiple doses 200 mg once daily; mean (SD)
observation-type: half-life (h)
Just the number please, in h, no unit attached.

# input Identify half-life associated with the compound CC(C)(CC(=O)N1CCCC1)NCC(=O)N1C[C@@H](F)C[C@H]1C#N
# output 10.2

----------
# Type: in vivo, human (Chinese patients with type 2 diabetes)
# condition-notes: human, plasma, oral, 100 mg, Vz/F, single dose 100 mg; mean (SD)
observation-type: Vd/F (L)
Just the number please, in L, no unit attached.

# input Identify Vd/F associated with the compound CC(C)(CC(=O)N1CCCC1)NCC(=O)N1C[C@@H](F)C[C@H]1C#N
# output 1010
